# experimental.target: JNK2 (Homo sapiens)
# Sequence (P45984 whole entry): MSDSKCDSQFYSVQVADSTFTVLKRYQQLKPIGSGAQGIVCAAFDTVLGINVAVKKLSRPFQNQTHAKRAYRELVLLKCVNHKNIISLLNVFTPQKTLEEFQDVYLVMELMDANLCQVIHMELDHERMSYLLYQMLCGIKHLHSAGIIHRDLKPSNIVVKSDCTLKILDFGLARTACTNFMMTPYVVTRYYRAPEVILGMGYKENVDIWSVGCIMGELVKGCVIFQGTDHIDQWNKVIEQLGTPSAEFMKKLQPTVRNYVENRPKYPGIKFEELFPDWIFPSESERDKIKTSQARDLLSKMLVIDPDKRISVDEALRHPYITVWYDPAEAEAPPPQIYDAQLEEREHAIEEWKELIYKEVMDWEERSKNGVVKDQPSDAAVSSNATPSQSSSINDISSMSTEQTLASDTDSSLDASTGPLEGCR
# method.summary: JNK2 kinase (intrinsic ATPase, Kinase-Glo) assay
# Type: biochemical
# run.parameters: Table 3b; read-out: Ki(app) JNK2
pKi: −log10 of the molar value.

| compound | experimental.target | pKi |
| --- | --- | --- |
| N#CC(c1ccnc(OCc2ccc(CN3CCOCC3)cc2)n1)c1nc2ccccc2s1 (stereo not shown) [CDD-939, bentamapimod] | JNK2 (Homo sapiens) | 6.19 |

====

# experimental.target: JNK1 (Homo sapiens)
# Sequence (P45983 whole entry): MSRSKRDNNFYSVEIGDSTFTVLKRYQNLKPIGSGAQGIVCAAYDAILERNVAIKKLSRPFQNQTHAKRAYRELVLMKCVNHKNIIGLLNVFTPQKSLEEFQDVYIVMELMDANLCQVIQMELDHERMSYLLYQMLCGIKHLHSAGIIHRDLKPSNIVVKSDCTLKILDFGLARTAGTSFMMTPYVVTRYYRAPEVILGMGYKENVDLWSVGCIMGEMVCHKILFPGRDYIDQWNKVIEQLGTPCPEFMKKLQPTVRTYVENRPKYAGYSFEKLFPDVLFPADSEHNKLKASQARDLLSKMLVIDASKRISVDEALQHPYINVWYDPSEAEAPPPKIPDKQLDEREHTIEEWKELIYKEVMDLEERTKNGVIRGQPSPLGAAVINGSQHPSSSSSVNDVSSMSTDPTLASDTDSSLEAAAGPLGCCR
# method.summary: Promega NanoBRET intracellular target engagement (tracer K10 displacement), JNK1
List of log10(IC50) values.
endpoint.label: log10(IC50) (log10 of the value in µM)

| compound.smiles | log10(IC50) |
| --- | --- |
| O=C(Nc1ccc(O)c(C(=O)N2CCCCC2)c1)c1cc2c(-c3cnc4[nH]ccc4c3)cccc2s1 | -0.76 |
| COc1ccc(NC(=O)c2cc3c(-c4cnc5[nH]cc(C)c5c4)cccc3s2)cc1C(=O)N(C)C | -0.81 |
| O=C(Nc1cncnc1)c1cc2c(-c3cnc4[nH]ccc4c3)cccc2s1 | 0.54 |
| CNC(=O)c1cc2c(-c3cnc4[nH]ccc4c3)cccc2s1 | 1.17 |
| CNCc1ccc(NC(=O)c2cc3c(-c4cnc5[nH]ccc5c4)cccc3s2)cc1 | 0.34 |
| O=C(Nc1ccc(F)cc1)c1ccn2ncc(-c3cnc4[nH]ccc4c3)c2c1 | -0.11 |
| CN(C)C(=O)c1cc(O)cc(NC(=O)c2cc3c(-c4cnc5[nH]ccc5c4)cccc3s2)c1 | 0.20 |
| CNCc1ccc(NC(=O)c2ccn3ncc(-c4cnc5[nH]ccc5c4)c3c2)cc1 | 0.71 |

====

# method.summary: In vitro metabolism in human liver microsomes
# run.parameters: human, microsomes
Lab note: compare half-life with 3 h, writing met if less and not met if equal or more.

| compound.smiles | assigned.category |
| --- | --- |
| CN(C)CCNC(=O)c1cc2c(-c3cnc4[nH]ccc4c3)cccc2s1 | not met |
| CNC(=O)c1cc(NC(=O)c2cc3c(-c4cnc5[nH]ccc5c4)cccc3s2)ccc1O | met |
| CN(C)Cc1ccc(NC(=O)c2ccn3ncc(-c4cnc5[nH]ccc5c4)c3c2)cc1 | met |
| NC(=O)c1cccc(NC(=O)c2cc3c(-c4cnc5[nH]ccc5c4)cccc3s2)c1 | not met |
| CN(C)C(=O)c1cc(NC(=O)c2cc3c(-c4cnc5[nH]ccc5c4)cccc3o2)ccc1O | not met |
| CNC(=O)c1ccc(NC(=O)c2ccn3ncc(-c4cnc5[nH]ccc5c4)c3c2)cc1 | met |
| Cc1ccc(NC(=O)c2cc3c(-c4cnc5[nH]ccc5c4)cccc3s2)cc1C(=O)N(C)C | met |
| COc1ccc(NC(=O)c2cc3c(-c4cnc5[nH]ccc5c4)cccc3s2)cc1C(=O)N(C)C | met |
| CNCc1ccc(NC(=O)c2ccn3ncc(-c4cnc(N)nc4)c3c2)cc1 | met |
| CN(C)C(=O)c1cc(NC(=O)c2cc3c(-c4cnc5[nH]ccc5c4)cccc3s2)ccn1 | not met |
| Cc1ccc(NC(=O)c2ccn3ncc(-c4cncc5ccccc45)c3c2)cc1 | met |
| N#Cc1cc(NC(=O)c2cc3c(-c4cnc5[nH]ccc5c4)cccc3s2)ccc1O | not met |
| CN(C)C(=O)c1cc(NC(=O)c2cc3c(-c4cnc5[nH]ccc5c4)cccc3s2)ccc1O | met |
| O=C(Nc1ccc(O)c(C(=O)NCC2CC2)c1)c1cc2c(-c3cnc4[nH]ccc4c3)cccc2s1 | not met |
| O=C(Nc1cncnc1)c1cc2c(-c3cnc4[nH]ccc4c3)cccc2s1 | not met |
| CN(C)C(=O)c1cc(NC(=O)c2ccc3ncc(-c4cnc5[nH]ccc5c4)n3c2)ccc1O | not met |
| CN(C)C(=O)c1cc(O)cc(NC(=O)c2cc3c(-c4cnc5[nH]ccc5c4)cccc3s2)c1 | not met |
